System: Suptl cells (T-lymphocyte cell line)
Experiment: Cytotoxicity assay (MTT)
Assay type: cell-based
Conditions: 50% cytotoxic concentration, 72 hours, MTT; read-out: CC50
Overview of reported CC50 across a group of molecules:

Recorded results for 5 molecules are shown here.
>>> result("CCOP(=O)(Cn1cc(CN2C(=O)C(F)(F)c3ccccc32)nn1)OCC")
"1.5 mM"
>>> result("Cc1cn(C2CC(n3cc(CN4C(=O)C(F)(F)c5ccccc54)nn3)C(CO)O2)c(=O)[nH]c1=O (stereo not shown)")
"0.835 mM"
>>> result("Cc1ccc2c(c1)C(F)(F)C(=O)N2Cc1cn(C2CC(n3cc(C)c(=O)[nH]c3=O)OC2CO)nn1 (stereo not shown)")
"> 0.1 mM"
>>> result("Cc1cn(C2CC(n3cc(CN4C(=O)C(F)(F)c5cc(Cl)ccc54)nn3)C(CO)O2)c(=O)[nH]c1=O (stereo not shown)")
"1.05 mM"
>>> result("CCOP(=O)(Cn1cc(CN2C(=O)C(F)(F)c3cc(Cl)ccc32)nn1)OCC")
"1.9 mM"

query: # returns recorded CC50 (system: Suptl cells (T-lymphocyte cell line)) for CCOP(=O)(Cn1cc(CN2C(=O)C(O)(C#CC3CC3)c3cc(Cl)ccc32)nn1)OCC (stereo not shown)
result: > 0.1 mM

query: Lookup CCOP(=O)(Cn1cc(CN2C(=O)C(F)(F)c3cc(C)ccc32)nn1)OCC
result: > 0.1 mM
